MEASURED_ON: Female germline-specific tumor suppressor gld-1 (Caenorhabditis elegans)
PROCEDURE_DETAILS: small molecules blocking C. elegans GLD-1 RNA recognition – biochemical, fluorescence polarization, primary screen (AID 2280);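 note: 0% = DMSO wells with GLD-1 and probe and 100% = wells lacking GLD-1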
STATED_CONDITIONS: purified GLD-1 + fluorescein TGE RNA, at 5.96 µM
Hit rate of the full screen: of about 320,000 compounds, about 1,400 (0.44%) were called active.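 Rule for the calls: active = percent inhibition above a per-plate cutoff, the plate mean of test compounds plus 3 SD (cut at about 30% in these data); inactive = the rest.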 The sample holds actives, similar compounds and a random draw of the others, so the mix is not that of the screen.
Hi! Could you answer with just one of these? Yes (active), No (inactive)

# COMPOUND, CLASS_NAME
data = [
    ("N#C[C@]1(S(=O)(=O)c2ccccc2)C[C@@H]2ON=C(c3cccc(Br)c3)[C@@H]2C1", "No"),
    ("COC(=O)c1cc(CNC(=O)CC(C)c2ccccc2)ccc1OC (stereo unspecified)", "Yes"),
    ("COc1cc(N2CCCC2)c(OC)cc1/C=C(/C#N)c1cccc(Br)c1", "No"),
    ("O=C(Cn1cnc2ccccc21)Nc1ccccc1-c1ccccc1", "No"),
    ("Cc1ccc(S(=O)(=O)c2c[nH]c3ccc(Cl)cc3c2=O)cc1", "No"),
]

How did this test come out for `CCOC(=O)c1cnc(SC)nc1Sc1ccc(Cl)cc1Cl` ?
No

How did this test come out for Cc1ccc(CNC(=O)CC(NC(=O)c2ccccc2)c2ccccc2)cc1 (stereo unspecified) ?
No

How did this test come out for `O=C(COC(=O)c1cccc(Br)c1)Nc1cccc2c1C(=O)c1ccccc1C2=O` ?
No

---

MEASURED_ON: Female germline-specific tumor suppressor gld-1 (Caenorhabditis elegans) (UniProt Q17339)
Sequence (Q17339 whole entry, looked up): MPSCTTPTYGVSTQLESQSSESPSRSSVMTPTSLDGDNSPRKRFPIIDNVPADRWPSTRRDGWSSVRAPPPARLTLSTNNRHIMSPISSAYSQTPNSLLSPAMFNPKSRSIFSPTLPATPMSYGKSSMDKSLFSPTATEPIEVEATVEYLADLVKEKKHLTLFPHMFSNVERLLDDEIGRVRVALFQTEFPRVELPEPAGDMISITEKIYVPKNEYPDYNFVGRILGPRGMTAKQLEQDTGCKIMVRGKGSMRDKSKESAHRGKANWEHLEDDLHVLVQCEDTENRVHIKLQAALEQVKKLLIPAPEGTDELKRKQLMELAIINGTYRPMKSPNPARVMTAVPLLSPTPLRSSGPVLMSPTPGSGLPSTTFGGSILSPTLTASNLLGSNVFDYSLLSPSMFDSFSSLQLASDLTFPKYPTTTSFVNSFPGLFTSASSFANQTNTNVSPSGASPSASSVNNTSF
PROCEDURE_DETAILS: small molecules blocking C. elegans GLD-1 RNA recognition – biochemical, fluorescence polarization, primary screen (AID 2280);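 note: 0% = DMSO wells with GLD-1 and probe and 100% = wells lacking GLD-1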
STATED_CONDITIONS: purified GLD-1 + fluorescein TGE RNA, at 5.96 µM
Screen size: about 320,000 compounds; about 1,400 (0.44%) were called active.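 The calls were made as follows: active = percent inhibition above a per-plate cutoff, the plate mean of test compounds plus 3 SD (cut at about 30% in these data); inactive = the rest.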 Many of the other results were omitted from the sample, so actives are more common in it than they were.
Hi! Could you answer with just one of these? true (1) = active, false (0) = inactive

See these solved cases before continuing.
# COMPOUND, CLASS_NAME
measured = [
    ("CN(C)/C=C(/C(=O)c1ccc(F)cc1)S(=O)(=O)c1ccc(F)cc1", "false (0)"),
    ("Cc1ccc(S(=O)(=O)C(C#N)c2nc3ccccc3nc2N2CCCC2)cc1C (stereo not given)", "true (1)"),
    ("Cc1cc(N2CCN(S(=O)(=O)c3ccc(C)c(C)c3)CC2)c2ccccc2n1", "false (0)"),
    ("COCCn1c(N)c(N(Cc2ccccc2)C(=O)C2CCCCC2)c(=O)[nH]c1=O", "false (0)"),
    ("COc1ccc(C(=O)CN2C(=O)NC3(CCc4ccccc43)C2=O)c(OC)c1 (stereo not given)", "false (0)"),
    ("CSc1c(SCc2ccccc2)cnn(Cc2ccccc2)c1=O", "true (1)"),
]

How did this test come out for CC(C)OC(=O)C(C#N)c1nc2ccccc2nc1N1CCN(Cc2ccccc2)CC1 (stereo not given) ?
false (0)

How did this test come out for Cc1ccc(CNC(=O)C2CCCN2S(=O)(=O)c2ccc3c(c2)C(C)(C)C(=O)N3C)cc1 (stereo not given) ?
false (0)

How did this test come out for O=c1cc(CO)oc(C(Nc2cccc([N+](=O)[O-])c2)c2ccccn2)c1O (stereo not given) ?
false (0)

How did this test come out for `COc1ccc(OCCCn2cccc2/C=C2/C(=N)N3OC(C)=CC3=NC2=O)cc1` ?
false (0)
